Value source: patent US20240368150A1

Tested on: primary human T-cells
assay explanation: Proliferation assay after 5 days (CellTiter-Glo, CD3 stimulation; PBS counter screen)
Type: cell-based
run parameters: Homo sapiens, T-cell, 120 h, CD3 stimulation, 5 days; normalized to reference compound A1 as stimulator control = 100%, DMSO neutral control; read-out: Emax proliferation (% activation)
Description: Compounds are then added (see next section) to medium only plates. Cells are assessed for proliferation 5 days later by measuring […] using CellTiterGlo (Promega). After 5 days, for detection of ATP which is directly proportional to the number of cells present per well, the CellTiter-Glo® 2.0 Reagent is used. […] Luminescence is measured with PHERAstar FSX (interval time 0.5 sec, gain 3000, focal height 15 mm) and exported as CSV file for analysis in Genedata screener. […]
parameter: Emax (%)
Answer in %, number only, no unit symbol.

The examples below pair each entry with its known result.
| compound | Emax / % |
| --- | --- |
| CC1(Nc2nnc(-c3ccc4c(c3)N(Cc3ccc(Cl)cc3)C(=O)[C@@H](N)CS4(=O)=O)o2)CC(F)(F)C1 [Example 406] | 79 |
| COC(=O)N1CCC(c2nnc(-c3ccc4c(c3)N(Cc3ccc(OC5CCCC5)cc3)C(=O)[C@@H](N)CS4(=O)=O)o2)C1 (stereo partly drawn) [Example 444] | 99 |
| CN[C@@H](C)C(=O)N[C@H]1CS(=O)(=O)c2cc(F)c(-c3nnc(C(C)(C)C)o3)cc2N(Cc2ccc(Cl)cc2)C1=O [Example 268] | 95 |
| CC(F)(F)CNc1nnc(-c2cc3c(cc2F)S(=O)(=O)C[C@H](N)C(=O)N3Cc2ccc(Cl)cc2)o1 [Example 502] | 72 |
| CC(Nc1nnc(-c2cc3c(cc2F)S(=O)(=O)C[C@H](N)C(=O)N3Cc2ccc(Cl)cc2)o1)C1CC1(F)F (single isomer, unassigned) [Example 495] | 93 |

Consider the additional compound presented here.
Record CC(C)(CN1CCS(=O)(=O)CC1)c1nnc(-c2cc3c(cc2F)S(=O)(=O)C[C@H](N)C(=O)N3Cc2ccc(Cl)cc2)o1 [Example 138] . Reported Emax: 120
